Target: human recombinant HDAC6 (Homo sapiens, UniProt Q9UBN7)
Construct: purchased Calbiochem Inc. 382180
Sequence (Q9UBN7 whole entry): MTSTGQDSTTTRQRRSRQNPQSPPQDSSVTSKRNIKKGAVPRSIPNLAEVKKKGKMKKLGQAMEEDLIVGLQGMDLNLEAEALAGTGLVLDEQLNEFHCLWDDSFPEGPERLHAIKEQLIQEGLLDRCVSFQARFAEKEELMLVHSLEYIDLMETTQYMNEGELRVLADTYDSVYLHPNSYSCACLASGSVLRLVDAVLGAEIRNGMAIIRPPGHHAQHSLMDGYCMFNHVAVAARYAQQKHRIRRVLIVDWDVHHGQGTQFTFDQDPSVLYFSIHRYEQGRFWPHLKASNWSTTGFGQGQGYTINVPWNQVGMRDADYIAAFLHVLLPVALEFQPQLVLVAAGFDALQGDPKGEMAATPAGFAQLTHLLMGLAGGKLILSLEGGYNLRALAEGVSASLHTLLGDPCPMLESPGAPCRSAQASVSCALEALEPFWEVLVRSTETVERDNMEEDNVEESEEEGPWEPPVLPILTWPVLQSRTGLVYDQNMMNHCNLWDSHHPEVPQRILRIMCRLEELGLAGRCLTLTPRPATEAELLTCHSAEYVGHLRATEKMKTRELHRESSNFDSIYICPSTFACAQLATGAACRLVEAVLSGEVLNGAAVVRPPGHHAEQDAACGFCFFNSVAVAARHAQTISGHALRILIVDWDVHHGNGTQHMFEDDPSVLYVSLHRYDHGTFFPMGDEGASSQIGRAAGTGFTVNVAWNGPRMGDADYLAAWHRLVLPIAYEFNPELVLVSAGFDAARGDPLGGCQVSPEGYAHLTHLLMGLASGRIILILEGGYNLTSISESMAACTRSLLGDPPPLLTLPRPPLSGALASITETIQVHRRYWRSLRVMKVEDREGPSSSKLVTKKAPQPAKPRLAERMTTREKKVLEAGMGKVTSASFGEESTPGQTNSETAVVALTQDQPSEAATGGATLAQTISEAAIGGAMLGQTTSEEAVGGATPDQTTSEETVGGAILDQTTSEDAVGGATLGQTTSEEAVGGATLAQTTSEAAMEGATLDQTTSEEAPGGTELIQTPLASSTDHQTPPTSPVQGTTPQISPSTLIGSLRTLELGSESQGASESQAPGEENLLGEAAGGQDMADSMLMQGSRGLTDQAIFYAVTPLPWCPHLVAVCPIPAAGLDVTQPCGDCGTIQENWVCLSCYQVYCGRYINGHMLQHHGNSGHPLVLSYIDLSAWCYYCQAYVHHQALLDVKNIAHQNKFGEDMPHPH
Experiment: HDAC6 enzyme activity inhibition (HDAC Fluorimetric Drug Discovery Kit)
Assay type: biochemical
Conditions: HDAC1 IC50 / HDAC6 IC50
Description: An experiment was conducted to identify the selectivity of the compound represented by formula I of the present invention to HDAC6 through an experiment on HDAC1 and HDAC6 enzyme activity inhibition. […]
Tag: MET if measured HDAC6 selectivity (fold) is not below 800 fold, NOT MET if it is.

Q) HDAC6 selectivity (fold) >= 800 fold for Fc1cc(-c2nnc(C(F)F)o2)ccc1Cn1cc(-c2ccc3c(c2)CCN(C2CCC2)C3)nn1 [Compound 4361] ?
A) NOT MET

Q) Check this compound for HDAC6 selectivity (fold) at or above 800 fold: CN1CCC(F)(c2cn(Cc3ccc(-c4nnc(C(F)F)o4)cn3)nn2)CC1 [Compound 4005]
A) NOT MET

Q) Is HDAC6 selectivity (fold) at least 800 fold? Consider CC(=O)Nc1cccc(-c2cn(Cc3ccc(-c4nnc(C(F)F)o4)cc3F)nn2)c1 [Compound 3775]
A) MET

Q) I'd appreciate it if you could say whether CCN1CCN(c2cc(-c3cn(Cc4ccc(-c5nnc(C(F)F)o5)cc4)nn3)ccc2F)CC1 [Compound 4420] has HDAC6 selectivity (fold) at least equal to 800 fold.
A) NOT MET

Q) For this compound, is measured HDAC6 selectivity (fold) 800 fold or higher? CCN1CC(N2CCc3cc(-c4cn(Cc5ccc(-c6nnc(C(F)F)o6)cc5F)nn4)ccc3C2)C1 [Compound 4392]
A) MET

Q) API: above_or_equal(metric=HDAC6 selectivity (fold), cutoff=800 fold) for item CN1CCC(c2cn(Cc3ccc(-c4nnc(C(F)F)o4)cn3)nn2)CC1 [Compound 3806]
A) NOT MET

Q) Is reported HDAC6 selectivity (fold) greater than or equal to 800 fold here: CCN1CCC(c2cn(Cc3ccc(-c4nnc(C(F)F)o4)cn3)nn2)CC1 [Compound 3807]
A) NOT MET

Q) API: above_or_equal(metric=HDAC6 selectivity (fold), cutoff=800 fold) for item CN1CCN(c2cccc(-c3cn(Cc4ccc(-c5nnc(C(F)F)o5)cc4)nn3)c2F)CC1 [Compound 4483]
A) MET

Q) Identify whether the reported HDAC6 selectivity (fold) of the following compound is 800 fold or greater: CC(=O)N1CCC[C@H]1c1cn(Cc2ccc(-c3nnc(C(F)F)o3)cn2)nn1 [Compound 4029]
A) NOT MET

====

Molecular target: human recombinant HDAC6 (Homo sapiens, UniProt Q9UBN7)
Construct: purchased Calbiochem Inc. 382180
Test: HDAC6 enzyme activity inhibition (HDAC Fluorimetric Drug Discovery Kit)
Type: biochemical
Details: human recombinant HDAC6; IC50 calculated with GraphPad Prism
Experimental: An experiment was conducted to identify the selectivity of the compound represented by formula I of the present invention to HDAC6 through an experiment on HDAC1 and HDAC6 enzyme activity inhibition. […]
Bucketed by reported IC50, buckets being lo (below 30 nM), mid (30 nM to below 100 nM), hi (100 nM or more)

Q) Returns: class label. Input: CCN1CCN(C(=O)c2cccc(-c3cn(Cc4ccc(-c5nnc(C(F)F)o5)cn4)nn3)c2)CC1
A) mid

Q) Dear colleague, I would appreciate it if you could identify the bin for Fc1ccc(-c2cn(Cc3ccc(-c4nnc(C(F)F)o4)cc3)nn2)cc1N1CCN(C2CCC2)CC1 and reply at your convenience.
A) hi

Q) Classify this compound: CCN1CCC(F)(c2cn(Cc3ccc(-c4nnc(C(F)F)o4)cn3)nn2)CC1
A) hi

Q) Lab log: OC1(c2cn(Cc3ccc(-c4nnc(C(F)F)o4)cc3F)nn2)CCOC1 (stereo not drawn) — assign IC50 category
A) hi

Q) Band for the recorded IC50 of CN1CC(NCc2ccc(-c3cn(Cc4ccc(-c5nnc(C(F)F)o5)cc4F)nn3)cc2)C1 ?
A) mid

Q) Quick check: band for CN1CCC(c2cccc(-c3cn(Cc4ccc(-c5nnc(C(F)F)o5)cn4)nn3)c2)CC1
A) lo

Q) Which IC50 band matches Fc1cc(-c2nnc(C(F)F)o2)ccc1Cn1cc(-c2ccc3c(CN4CCOCC4)c[nH]c3c2)nn1 ?
A) lo

Q) Determine which band this compound sits in: Fc1cc(-c2nnc(C(F)F)o2)ccc1Cn1cc(-c2cccc3[nH]ccc23)nn1
A) lo

Q) Record CCOC(=O)N1CCC(c2cn(Cc3ccc(-c4nnc(C(F)F)o4)cn3)nn2)CC1 — which class?
A) hi

Q) For the record Fc1cc(-c2nnc(C(F)F)o2)ccc1Cn1cc(-c2ccc(F)c(N3C[C@@H]4C[C@H]3CN4)c2)nn1 , report the class its IC50 corresponds to.
A) hi

Q) Class (by measured IC50) for CCn1ccc2ccc(-c3cn(Cc4ccc(-c5nnc(C(F)F)o5)cn4)nn3)cc21
A) lo

Q) Which class is correct for the following compound? FC(F)c1nnc(-c2ccc(Cc3nnc(-c4ccccc4)o3)cc2)o1
A) hi

Q) Category lookup for the compound FC(F)c1nnc(-c2ccc(Cn3cc(-c4cccc(N5CCOCC5)c4)nn3)nc2)o1
A) lo

Q) Entry Fc1cccc(-c2cn(Cc3ccc(-c4nnc(C(F)F)o4)cn3)nn2)c1 belongs to which category?
A) mid

Q) Category of CCN1CCN(c2cccc(-c3cn(Cc4ccc(-c5nnc(C(F)F)o5)cc4F)nn3)c2)CC1 :
A) lo

Q) Category lookup for the compound Cc1cccc(-c2cn(Cc3ccc(-c4nnc(C(F)F)o4)cn3)nn2)c1
A) mid

Q) // bin(item) where item = FC(F)c1nnc(-c2ccc(Cn3cc(-c4ccc(-n5cncn5)cc4)nn3)nc2)o1
A) mid

Q) Consider CNCc1cccc(-c2cn(Cc3ccc(-c4nnc(C(F)F)o4)cn3)nn2)c1 . To which IC50 class does it belong?
A) mid

Q) # bin label for FC(F)c1nnc(-c2ccc(Cn3cc(-c4cccc5cc[nH]c45)nn3)cc2)o1
A) hi

Q) Which bin should I file Fc1cc(-c2nnc(C(F)F)o2)ccc1Cn1cc(-c2ccc(F)c(N3CCNCC3)c2)nn1 under?
A) mid

Q) Any idea which band Fc1cc(-c2nnc(C(F)F)o2)ccc1Cn1cc(-c2cccc(CN3CC(F)(F)C3)c2)nn1 is in?
A) mid

Q) Exercise: read the entry O=C(O)c1ccc(-c2cn(Cc3ccc(-c4nnc(C(F)F)o4)cc3F)nn2)cc1 and state which class it falls under.
A) hi

Q) State the class of the compound shown: FC(F)c1nnc(-c2ccc(Cn3cc(-c4ccccc4)cn3)nc2)o1
A) hi

Q) Which category does the recorded IC50 put FC(F)c1nnc(-c2ccc(Cn3cc(-c4ccc5[nH]cc(CN6CCOCC6)c5c4)nn3)cc2)o1 in?
A) lo
